Biological target: human P2X3 receptor (hP2X3-MFC) (Homo sapiens, UniProt P56373)
Sequence (P56373 6-364): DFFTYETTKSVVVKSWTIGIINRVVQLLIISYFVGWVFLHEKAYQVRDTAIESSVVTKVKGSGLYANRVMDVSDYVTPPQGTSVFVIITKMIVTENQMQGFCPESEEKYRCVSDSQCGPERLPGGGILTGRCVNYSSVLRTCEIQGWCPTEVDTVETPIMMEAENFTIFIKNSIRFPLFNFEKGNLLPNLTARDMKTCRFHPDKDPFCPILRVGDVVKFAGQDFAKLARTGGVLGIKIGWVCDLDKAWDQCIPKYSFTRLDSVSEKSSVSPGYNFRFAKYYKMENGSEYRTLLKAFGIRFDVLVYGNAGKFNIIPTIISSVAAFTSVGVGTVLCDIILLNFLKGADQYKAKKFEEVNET
Quantity measured: Kd (nM)
Return type: number; implicit unit nM.

# value of Kd, human P2X3 receptor (hP2X3-MFC) (Homo sapiens, UniProt P56373), item Nc1ncnc2c1ncn2[C@@H]1O[C@H](COP(=O)(O)OP(=O)(O)OP(=O)(O)O)[C@@H](O)[C@H]1O = 2.8
